Test system: COLO 205 colon
Assay: NCI tumour cell line growth inhibition, 48 h
readoutLabel: TGI (µM)
Just the number please, in µM, no unit attached.

Known results for compounds:
Cn1c2ccccc2c2cc(-c3ccccc3)c3c(c21)C(=O)c1ccccc1C3=O    94.3
NS(=O)(=O)c1cc(Cl)c(NC(=S)NC(=O)Nc2ccc(Cl)c(Cl)c2)c(Cl)c1    33.6
C[C@@H]1CCC2[C@@H](C)[C@@H](OCC(CO[C@H]3OC4O[C@@]5(C)CC[C@H]6[C@H](C)CCC([C@H]3C)[C@@]46OO5)OC(=O)CCC(=O)O)OC3O[C@@]4(C)CC[C@@H]1[C@]32OO4 (stereo not given in full)    12.5
C=CCSc1nnc2cc(CN3CCCC3)c(-c3ccc(Cl)cc3)nn12    34.5
COC1=CC(=O)C(C2CC(=O)c3c(O)cc(O)cc3O2)=CC1=O (stereo not given)    32.3

Entry under test: O=C(CSc1ccc(Cl)cc1)Nc1ccc(-c2nc3ccccc3s2)c(Cl)c1 . Its TGI was 9.24

Measured TGI, CCCC(=O)OC1CC(n2cc(F)c(=O)[nH]c2=O)OC1COP(=O)(OCC(Cl)(Cl)Cl)OCC(Cl)(Cl)Cl (stereo not given) : 59

TGI measured on Nc1ncnc2c1nnn2C1OC(CO)C(O)C1O (stereo not given) = 2.73

Value of measured TGI for the entry CC1OC(OC2C(OC(=O)[C@]34CCC(C)(C)C[C@H]3C3=CC[C@@H]5[C@@]6(C)CC[C@H](OC7OC(C(=O)O)C(O)C(O)C7O)C(C)(C)[C@@H]6CC[C@@]5(C)[C@]3(C)C[C@H]4O)OCC(O)C2O)C(O)C(OC2OCC(O)(CO)C2O)C1OC1OCC(O)C(O)C1O (stereo not given in full) : 3.36
